Consider the following binders; for each one, report its KDR tyrosine phosphorylation in HUVEC, Maximum Inhibition at 100 nM (% Inhibition), N = 2.
Biological target: human KDR (human, UniProt P35968 20-1356)
Sequence (P35968 20-1356): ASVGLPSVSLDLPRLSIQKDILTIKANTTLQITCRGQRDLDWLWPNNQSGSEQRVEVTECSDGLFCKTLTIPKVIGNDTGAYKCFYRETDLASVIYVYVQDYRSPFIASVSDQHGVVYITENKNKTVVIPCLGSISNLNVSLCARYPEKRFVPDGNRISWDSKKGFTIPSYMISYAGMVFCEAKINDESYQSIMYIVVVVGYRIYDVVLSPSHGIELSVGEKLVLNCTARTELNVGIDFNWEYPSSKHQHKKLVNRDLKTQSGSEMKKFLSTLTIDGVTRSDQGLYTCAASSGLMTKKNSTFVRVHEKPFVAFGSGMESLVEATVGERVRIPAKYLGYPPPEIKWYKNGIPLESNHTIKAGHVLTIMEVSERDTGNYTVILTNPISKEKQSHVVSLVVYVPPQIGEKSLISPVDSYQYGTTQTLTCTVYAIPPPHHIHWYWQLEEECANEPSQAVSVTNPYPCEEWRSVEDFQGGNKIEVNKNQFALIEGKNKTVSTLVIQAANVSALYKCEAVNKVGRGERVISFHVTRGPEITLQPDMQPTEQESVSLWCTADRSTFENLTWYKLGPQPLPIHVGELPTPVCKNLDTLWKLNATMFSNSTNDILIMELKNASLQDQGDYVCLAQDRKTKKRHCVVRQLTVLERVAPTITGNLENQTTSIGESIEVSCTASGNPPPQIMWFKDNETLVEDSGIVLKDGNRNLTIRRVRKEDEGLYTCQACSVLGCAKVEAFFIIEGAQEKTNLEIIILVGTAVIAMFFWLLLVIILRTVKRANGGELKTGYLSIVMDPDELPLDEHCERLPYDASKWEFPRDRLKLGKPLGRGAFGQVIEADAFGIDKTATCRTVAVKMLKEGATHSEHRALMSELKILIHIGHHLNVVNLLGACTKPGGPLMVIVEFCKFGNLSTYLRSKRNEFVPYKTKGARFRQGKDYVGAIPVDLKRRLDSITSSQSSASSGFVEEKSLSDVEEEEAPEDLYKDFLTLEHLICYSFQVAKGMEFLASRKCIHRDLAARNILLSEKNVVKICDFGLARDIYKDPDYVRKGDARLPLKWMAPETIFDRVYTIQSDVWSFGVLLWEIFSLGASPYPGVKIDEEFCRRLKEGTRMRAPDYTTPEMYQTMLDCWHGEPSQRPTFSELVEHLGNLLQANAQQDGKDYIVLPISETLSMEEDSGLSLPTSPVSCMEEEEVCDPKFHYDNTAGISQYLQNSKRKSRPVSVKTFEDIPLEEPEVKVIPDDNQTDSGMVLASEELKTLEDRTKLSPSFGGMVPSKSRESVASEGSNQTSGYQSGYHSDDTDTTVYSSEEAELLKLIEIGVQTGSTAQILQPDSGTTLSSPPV
Test: cell-based or functional assay
Give bare numbers, in %.

Observe how each entry below is paired with its result.
>  <BINDER>
31E11 (antibody, V domains shown, Fully human monoclonal antibody from a XenoMouse hybridoma (IgG2 or IgG4 strain), purified) VH: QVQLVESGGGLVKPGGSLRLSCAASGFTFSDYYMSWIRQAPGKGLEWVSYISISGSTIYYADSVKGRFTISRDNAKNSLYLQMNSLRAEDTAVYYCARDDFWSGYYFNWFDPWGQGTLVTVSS VL: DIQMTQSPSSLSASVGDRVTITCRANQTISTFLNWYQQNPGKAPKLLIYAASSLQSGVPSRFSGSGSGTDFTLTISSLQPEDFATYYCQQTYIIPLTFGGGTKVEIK

>  <NUMERIC READOUT>
86

$$$$
>  <BINDER>
32G7 (antibody, V domains shown, Fully human monoclonal antibody from a XenoMouse hybridoma (IgG2 or IgG4 strain), purified) VH: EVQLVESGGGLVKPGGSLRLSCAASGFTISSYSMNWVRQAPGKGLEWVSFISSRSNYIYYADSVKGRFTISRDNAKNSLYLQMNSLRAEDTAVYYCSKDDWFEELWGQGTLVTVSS VL: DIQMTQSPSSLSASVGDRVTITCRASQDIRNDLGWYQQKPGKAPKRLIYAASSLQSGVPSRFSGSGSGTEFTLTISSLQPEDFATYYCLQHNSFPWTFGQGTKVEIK

>  <NUMERIC READOUT>
77

$$$$

Continue with the next binder.
binder 27A3 (antibody, V domains shown, Fully human monoclonal antibody from a XenoMouse hybridoma (IgG2 or IgG4 strain), purified) VH: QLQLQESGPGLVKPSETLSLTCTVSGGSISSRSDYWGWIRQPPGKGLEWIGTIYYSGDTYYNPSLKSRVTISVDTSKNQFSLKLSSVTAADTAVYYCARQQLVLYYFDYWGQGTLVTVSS VL: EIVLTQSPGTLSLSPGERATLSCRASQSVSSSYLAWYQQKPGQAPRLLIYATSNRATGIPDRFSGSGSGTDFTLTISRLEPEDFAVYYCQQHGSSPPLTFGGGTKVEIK , KDR tyrosine phosphorylation in HUVEC, Maximum Inhibition at 100 nM (% Inhibition), N = 2 observed: 79

These entries and their values trace back to patent US20100260765A1.
